Molecular target: recombinant hMAO-B (Homo sapiens, UniProt P27338)
Construct: purchased Fluka-Sigma-Aldrich s.r.l; (Italy); host or cells: Baculovirus infected BT1 cells
Sequence (P27338 whole entry): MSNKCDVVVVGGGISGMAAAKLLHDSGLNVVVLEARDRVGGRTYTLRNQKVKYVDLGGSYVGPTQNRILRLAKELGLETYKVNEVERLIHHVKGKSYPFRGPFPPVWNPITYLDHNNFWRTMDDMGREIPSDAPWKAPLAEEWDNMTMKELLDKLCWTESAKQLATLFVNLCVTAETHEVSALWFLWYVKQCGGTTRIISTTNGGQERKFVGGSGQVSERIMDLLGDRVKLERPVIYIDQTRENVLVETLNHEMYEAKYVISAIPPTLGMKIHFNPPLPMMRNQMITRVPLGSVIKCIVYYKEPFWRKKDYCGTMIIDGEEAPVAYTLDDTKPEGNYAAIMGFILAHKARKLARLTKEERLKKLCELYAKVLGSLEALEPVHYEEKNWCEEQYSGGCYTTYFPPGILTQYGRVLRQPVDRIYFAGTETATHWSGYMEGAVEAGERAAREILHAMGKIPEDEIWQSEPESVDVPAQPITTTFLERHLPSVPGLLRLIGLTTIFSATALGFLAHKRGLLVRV
Test: hMAO-B activity assay (kynuramine, fluorimetric)
Format: biochemical
Settings: kynuramine [S] = 10 µM, pH 7.4, 37 °C; mean ± S.D.; read-out: hMAO-B Ki
OBSERVED_PROPERTY: pKi
// pKi here means minus log10 of the molar concentration (mol/L)

[
  {
    "COMPOUND": "O=C(/C=C/c1ccc(O)c(O)c1)Nc1ccc(CC2SC(=O)NC2=O)cc1 (stereo not shown)",
    "OBSERVED_PROPERTY": "pKi",
    "EXPERIMENTAL_RESULT": 5.60
  },
  {
    "COMPOUND": "COc1cc(/C=C/C(=O)Oc2ccc(CC3SC(=O)NC3=O)cc2)ccc1O (stereo not shown)",
    "OBSERVED_PROPERTY": "pKi",
    "EXPERIMENTAL_RESULT": 6.00
  },
  {
    "COMPOUND": "COC(=O)/C=C/C(=O)Oc1ccc(CC2SC(=O)NC2=O)cc1 (stereo not shown)",
    "OBSERVED_PROPERTY": "pKi",
    "EXPERIMENTAL_RESULT": 5.50
  }
]

Request: Entry COc1cc(/C=C/C(=O)Nc2ccc(CC3SC(=O)NC3=O)cc2)ccc1O (stereo not shown) has what pKi?
Response: 5.48
